The reported numbers originate from the supplement of paper PMC11908140.

Property: 8OG:A repair function score; scope: individual variants
B1: library; numbered along this chain (parent)
chain: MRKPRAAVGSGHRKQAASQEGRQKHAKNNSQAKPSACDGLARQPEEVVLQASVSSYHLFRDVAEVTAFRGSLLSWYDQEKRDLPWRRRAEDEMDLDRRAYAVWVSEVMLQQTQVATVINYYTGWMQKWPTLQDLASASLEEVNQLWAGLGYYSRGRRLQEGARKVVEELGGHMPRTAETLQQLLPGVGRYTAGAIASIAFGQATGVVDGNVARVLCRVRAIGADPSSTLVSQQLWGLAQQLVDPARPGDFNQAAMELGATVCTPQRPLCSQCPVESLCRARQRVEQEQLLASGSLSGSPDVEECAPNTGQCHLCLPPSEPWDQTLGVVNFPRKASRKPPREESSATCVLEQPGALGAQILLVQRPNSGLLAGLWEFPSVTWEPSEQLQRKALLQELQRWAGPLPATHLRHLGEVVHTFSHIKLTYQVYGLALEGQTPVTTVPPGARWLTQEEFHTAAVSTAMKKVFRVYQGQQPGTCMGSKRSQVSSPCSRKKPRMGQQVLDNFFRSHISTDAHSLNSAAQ

# Variants of: B1
# measurement.notes: 8OG:A repair function score (normalized; synonymous = 0, nonsense = -1) (normalized log-likelihood score); higher = more repair activity (WT-like);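 note: cells sorted at 72 h after reporter transfection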
# details: with 8OG:A DNA repair reporter (GFP) in HEK-293 MUTYH KO cells

> print(dat)
   variant               endpoint.label  obs.value
1    A196Q  8OG:A repair function score     -0.897
2    L277C  8OG:A repair function score    -0.0293
3    Q181H  8OG:A repair function score     -0.175
4     L95F  8OG:A repair function score    -0.0596
5    L289A  8OG:A repair function score    0.00592
6    T406A  8OG:A repair function score       0.32
7    C489H  8OG:A repair function score     0.0276
8    G123L  8OG:A repair function score     0.0662

Give the measured 8OG:A repair function score for K337N -0.132

Check the records and state 8OG:A repair function score for G209Q -0.48

Give 8OG:A repair function score for the following variant: L501N -0.0105

Complete the entry with 8OG:A repair function score for Q233V 0.335

Given P474W , respond with its 8OG:A repair function score. -0.0167
